studyTarget: T1, beta-catenin in DLD1 TCF/LEF reporter cells (UniProt P35222 1-781)
T1 sequence (looked up): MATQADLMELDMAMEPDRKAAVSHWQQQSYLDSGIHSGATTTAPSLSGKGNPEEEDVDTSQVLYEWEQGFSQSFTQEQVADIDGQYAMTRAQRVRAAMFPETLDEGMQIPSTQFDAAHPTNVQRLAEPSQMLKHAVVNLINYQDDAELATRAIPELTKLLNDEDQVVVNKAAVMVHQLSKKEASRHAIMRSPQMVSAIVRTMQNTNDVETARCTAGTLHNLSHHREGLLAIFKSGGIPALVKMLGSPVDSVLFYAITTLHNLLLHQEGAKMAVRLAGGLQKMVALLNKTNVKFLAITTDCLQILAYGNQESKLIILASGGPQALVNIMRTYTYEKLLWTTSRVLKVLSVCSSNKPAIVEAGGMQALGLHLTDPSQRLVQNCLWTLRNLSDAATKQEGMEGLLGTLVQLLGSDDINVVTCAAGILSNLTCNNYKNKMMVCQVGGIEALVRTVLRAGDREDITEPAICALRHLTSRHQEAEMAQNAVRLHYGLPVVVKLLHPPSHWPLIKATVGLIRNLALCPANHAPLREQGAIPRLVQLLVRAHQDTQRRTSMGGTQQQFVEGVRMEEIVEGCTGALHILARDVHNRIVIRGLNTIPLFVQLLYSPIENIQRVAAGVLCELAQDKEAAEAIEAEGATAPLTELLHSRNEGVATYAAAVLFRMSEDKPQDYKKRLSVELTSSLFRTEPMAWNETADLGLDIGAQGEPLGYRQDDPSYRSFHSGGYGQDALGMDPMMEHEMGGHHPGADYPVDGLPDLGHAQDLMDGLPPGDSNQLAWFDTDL
assayExplanation: cell-based or functional assay
Starred links: 1 amine or outer side, 2 acyl side, 3 side chain; linkers in the order of their positions; H or OH if unused. Positions of bridges follow the written chain, without caps; N, C: chain ends. Non-standard residues stand in square brackets, D forms with d. Primed or numbered codes have the meaning given here. *: point of attachment. PyrS2″ = (S)-3-amino-1-((pent-4-en-1-yloxy)carbonyl)pyrrolidine-3-carboxylic acid (stapling residue), C=CCCCOC(=O)N1CC[C@@](N[*:1])(C(=O)[*:2])C1; B5(4) = 2,2-bis(4-pentenyl)glycine = 2-amino-2-(pent-4-en-1-yl)hept-6-enoic acid (stitching residue), C=CCCCC(CCCC=C)(N[*:1])C(=O)[*:2]; TfeGA = (S)-2-amino-3-((carboxymethyl)(2,2,2-trifluoroethyl)amino)propanoic acid, O=C([C@H](CN(CC(=O)[*:3])CC(F)(F)F)N[*:1])[*:2]; Phe(2-Cl) = N[C@@H](Cc1ccccc1Cl)C(=O)O; Bta = N[C@@H](Cc1csc2ccccc12)C(=O)O; αAllylPro = C=CC[C@@]1(C(=O)O)CCCN1; tBuAla = CC(C)(C)C[C@H](N)C(=O)O; Thr(ol) = C[C@@H](O)[C@H](N)CO; Leu(ol) = CC(C)C[C@H](N)CO; Alaol = C[C@@H](CO)N*
Criterion: DLD1 reporter assay Abs IC50 meeting or surpassing 5 µM. Met: condition met. Not met: condition not met.

IN: Say whether Ac-[αAllylPro]D[tBuAla][B5(4)]DDAAFT[PyrS2″][Phe(2-Cl)][Bta]-Alaol (staple 1-4, 4-11) [I-1246] shows DLD1 reporter assay Abs IC50 of 5 µM or more.
OUT: condition met

***
IN: Say whether Ac-[αAllylPro]D[tBuAla][B5(4)]DDAAFT[PyrS2″][Phe(2-Cl)][Bta]S-NHEt (staple 1-4, 4-11) [I-1244] shows DLD1 reporter assay Abs IC50 of 5 µM or more.
OUT: condition met

IN: Say whether Ac-[αAllylPro]D[tBuAla][B5(4)]D[TfeGA]AAFT[PyrS2″][Phe(2-Cl)][Bta]-Alaol (staple 1-4, 4-11) [I-1242] shows DLD1 reporter assay Abs IC50 of 5 µM or more.
OUT: condition not met

IN: Say whether Ac-[αAllylPro]D[tBuAla][B5(4)]DDAAFT[PyrS2″][Phe(2-Cl)][Bta][Leu(ol)] (staple 1-4, 4-11) [I-1247] shows DLD1 reporter assay Abs IC50 of 5 µM or more.
OUT: condition met

IN: Say whether Ac-[αAllylPro]D[tBuAla][B5(4)]DDAAFT[PyrS2″][Phe(2-Cl)][Bta][Thr(ol)] (staple 1-4, 4-11) [I-1245] shows DLD1 reporter assay Abs IC50 of 5 µM or more.
OUT: condition met

IN: Say whether Ac-[αAllylPro]D[tBuAla][B5(4)]D[TfeGA]AAFT[PyrS2″][Phe(2-Cl)][Bta][Thr(ol)] (staple 1-4, 4-11) [I-1241] shows DLD1 reporter assay Abs IC50 of 5 µM or more.
OUT: condition not met
